Recorded measurements of GI50, one per entry
test system: HOP-92; assay: NCI tumour cell line growth inhibition, 48 h
The source made the active and inactive calls. Cut-off read from the data, not from the text of the source: active = GI50 up to about 1.1 µM and inactive = higher.

molecule	GI50
C/C(=C1\N=C(c2ccccc2)OC1=O)c1ccccc1	> 100 µM (inactive)
CCOC(=O)C1=c2[nH]c3cccc4cccc(c43)n2C=C(C(C)=O)C1CC(C)=O (stereo not drawn)	36.6 µM (inactive)
NC(Cc1c[nH]c2ccccc12)C(=O)O (stereo not drawn) [DL-TRYPTOPHAN]	> 300 µM (inactive)
CC(N/N=C(\S)N1CCN(c2ccccn2)CC1)c1cccc[n+]1[O-] (stereo not drawn)	20.5 µM (inactive)
C=C(C)[C@@]1(O)CCCC[C@@H]1CC(Sc1ccccc1)Sc1ccccc1	4.3 µM (inactive)
O=C1c2ccccc2C(=O)c2cc3c(cc21)C[S+]([O-])C3	> 100 µM (inactive)
c1ccc2c(c1)CCc1c-2n(CCN2CCCCC2)c2ccccc12	16.4 µM (inactive)
Cc1cc2c(cc1C)C(=O)c1ncccc1C2=O	58.6 µM (inactive)
O=C1CC(=O)NC(NN2C(=O)CSC2C(=O)c2ccco2)=N1 (stereo not drawn)	> 100 µM (inactive)
O=C1c2cccnc2-c2nccc3c2c1nc1cc(Br)ccc13	0.438 µM (active)
CN(C)CCCNc1nnc(NCCCN(C)C)c2c(=O)c3sccc3[nH]c12	35.8 µM (inactive)
CCN(CC)CC(C(=O)Nc1c(C)cccc1C)/C(C)=N/NC(N)=S (stereo not drawn)	> 100 µM (inactive)
O=c1cc(/N=N\c2ccc(Br)cc2)[nH]c(=S)[nH]1	19.5 µM (inactive)
Clc1cc(Cl)cc(Nc2nc3ccccc3nc2-c2cccs2)c1	12.4 µM (inactive)
C=C1[C@@H](O)C[C@@]23CC[C@@H]4[C@@]5(C)CC[C@@H](OC(C)=O)C(C)(C)[C@@H]5C[C@@H](OC5OC(COC(C)=O)C(O)C(O)C5O)[C@@]4(C)C2=CC[C@H]3[C@H]1C (stereo partly drawn)	7.38 µM (inactive)
O=[N+]([O-])c1ccc(/N=N\c2c(O)c(S(=O)(=O)O)cc3cc(S(=O)(=O)O)ccc23)cc1	> 100 µM (inactive)
CC(C)(C)OC(=O)N1C2CCCC23O[C@@H]1c1cc2c(cc1C3=O)OCO2 (stereo partly drawn)	28.6 µM (inactive)
CCCS(=O)(=O)O	> 100 µM (inactive)
COC(C)(C)C(O)C(O)C[C@H](C)C1CC=C2C1(C)CCC1[C@@]3(C)CCC(OC(C)=O)C(C)(C)C3CC(OC3OC(COC(C)=O)C(O)C(O)C3O)[C@@]21C (stereo partly drawn)	3.6 µM (inactive)
CCCCSc1n/c(=C\c2ccc(N(C)C)cc2)c2nnnn12	> 100 µM (inactive)
O=[N+]([O-])c1ccc(-n2nc3ccc4c(no[n+]4[O-])c3n2)cc1	5.82 µM (inactive)
COc1ccc(Oc2nc3ccc(C(F)(F)F)cc3nc2-c2ccccc2)cc1	49.9 µM (inactive)
CCC1(OC(=O)CN)C(=O)OCc2c1cc1n(c2=O)Cc2cc3ccccc3nc2-1 (stereo not drawn)	0.547 µM (active)
Cc1ccc(NC(=S)NNC(=O)c2cc(-c3ccccc3)nc3ccccc23)cc1C	18.6 µM (inactive)
CC1[C@@H]2CC=C3C4CCC5Cc6nc7c(nc6C[C@@]5(C)C4CC(=O)[C@]32CO[C@@]1(O)C(O)CC(C)(C)O)CC1CCC2C3=C[C@H]4O[C@@]5(O[C@@](C)(CO)C[C@@H]5O)C(C)[C@@]4(O)[C@]3(C)[C@@H](O)CC2[C@]1(C)C7 (stereo partly drawn)	0.0041 µM (active)
CC(=O)N1c2ccccc2C23CCN4CC5=CCOC(O)C(C5CC42)C13 (stereo not drawn)	> 100 µM (inactive)
CC(C)(C)C(=O)OCC1C(=O)OCC1C(=O)N1Cc2cc3ccccc3nc2C1 (stereo not drawn)	1.5 µM (inactive)
C(=N/Nc1ccccn1)/c1cccnc1	> 100 µM (inactive)
C=C(C)C1C/C=C(/C)CCCC2(CCC3=C(CC(C(=C)C)C/C=C(/C)CCC3)O2)C(=O)C1 (stereo not drawn)	> 100 µM (inactive)
C=CCN(N=O)C(=O)NCCCC(NC(C)=O)C(=O)NCc1ccccc1 (stereo not drawn)	61.5 µM (inactive)
C=CCOC(C)n1c(C)cc(=O)n(C(C)OCC=C)c1=O (stereo not drawn)	72.1 µM (inactive)
CCOC(=O)c1sc2c(c1OC(=O)c1cccs1)c(=O)n(-c1ccccc1)c(=S)n2-c1ccccc1	24.5 µM (inactive)
CCOC(=O)NC(=O)c1cn(CCN2CCN(C(=O)NCCCCCCNC(=O)N3CCN(CCn4cc(C(=O)NC(=O)OCC)c(=O)[nH]c4=O)CC3)CC2)c(=O)[nH]c1=O	> 100 µM (inactive)
C=C1C(=O)O[C@H]2C[C@@]3(C)[C@H](O)CCC(=C)[C@@H]3[C@@H](OC(C)=O)[C@H]12	2.71 µM (inactive)
CC(=O)Nc1ccc(-c2nc3ccccc3s2)cc1I	26.4 µM (inactive)
O=C1C[C@@]23CCC4(CC2=CCC[C@H]3O1)OCCO4	> 100 µM (inactive)
[O-][Cl+3]([O-])([O-])[O-].c1ccc(-c2csc3c4ccccc4c4ccccc4[n+]23)cc1	4.41 µM (inactive)
NC(=O)c1csc(C2OC(COP(=O)(O)CP(=O)(O)OCC3OC(n4cnc5c(N)ncnc54)C(O)C3O)C(O)C2O)n1 (stereo not drawn)	> 100 µM (inactive)
